The origin of these recorded values is patent US20120282269A1.

- test-system: T1, recombinant human IL-23 (human, UniProt P29460 23-328)
- T1 sequence 1: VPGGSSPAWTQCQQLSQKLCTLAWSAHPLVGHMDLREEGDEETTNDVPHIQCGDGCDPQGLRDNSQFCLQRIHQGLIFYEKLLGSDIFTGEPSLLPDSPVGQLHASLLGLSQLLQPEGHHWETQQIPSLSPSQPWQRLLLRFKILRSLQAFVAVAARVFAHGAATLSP
- T1 sequence 2: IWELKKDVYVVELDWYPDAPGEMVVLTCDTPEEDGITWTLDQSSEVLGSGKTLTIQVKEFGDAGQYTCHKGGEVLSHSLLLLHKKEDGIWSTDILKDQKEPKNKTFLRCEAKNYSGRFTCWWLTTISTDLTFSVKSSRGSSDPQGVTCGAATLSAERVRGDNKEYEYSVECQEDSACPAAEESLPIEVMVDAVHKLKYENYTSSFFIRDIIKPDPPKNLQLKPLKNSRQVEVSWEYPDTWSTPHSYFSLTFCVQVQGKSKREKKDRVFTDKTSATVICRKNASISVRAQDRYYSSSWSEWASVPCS
- method-notes: cell-based or functional assay
measurement-kind: IC50, inhibition of IL-17 production from IL-23 stimulated mouse splenocytes (pM)
Entry rule: numbers only, all in pM.

Answered examples (3):
binder	number
31H9 (antibody, V domains shown) VH: EVQLQQSGPELVKPGASVKMSCKASGYTFTRYLMHWVKQKPGQGLEWIGYINPYNDGTNYNEKFKGKATLTSDKSSSTAYMELSSLTSEDSAVYYCSLNWDYAYWGQGTLVTVSA VL: DIVMTQSPATLSVTPGDRVSLSCRASQSISDYLHWYQQKSHESPRLLIKYASQSISGIPSRFSGSGSGSDFTLSINSVEPEDVGVYYCQNGHSFPYTFGGGTKLEIK	960
15C11 (antibody, V domains shown) VH: EVQLQQSGPVLVKPGASVKMSCKASGYTFTDYYMNWVKQSHGKSLEWIGVIIPYNGGTSYNQKFKGKATLTVDKSSSTAYMELNSLTSEDSAVYYCARDGHRWYFDVWGTGTTVTVSS VL: DVVMTQTPLSLPVSLGDQASISCRSSQSLVHSNGNTYLHWYLQKPGQSPKLLIYKVSNRFSGVPDRFSGSGSGTDFTLKINRVEAEDLGVYFCSQSTHVPYTFGGGTQLEIK	126
Chimeric 24A5 (antibody, V domains shown) VH: EVQLQQSGPELVKPGASVKMSCKASGYTFTTSIMHWVKQKPGQGLEWIGYINPYDDVTKYNEKFKGKATLTSDKSSSTAYMELSSLTSEDSAVYYCVRRWDEAYWGQGTLVTVSA VL: DIVMTQSPATLSVTPGNRVSLSCRASQSISDYLHWYQQKSHESPRLLIKYASQSISGIPSRFSGSGSGSNFTLSINSVEPEDVGVYYCQNGHSFPFTFGSGTKLEIK	404

Would you kindly look at the next entry?
GET /values?readout=IC50, inhibition of IL-17 production from IL-23 stimulated mouse splenocytes&item= 34D9 (antibody, V domains shown) VH: EVQLQQSGPELVKPGASVKIPCKASGYTFTDYNMDWVKKSHGKSLEWIGDINPHNGGTIYNQKFKGKATLTVDKSSSTAHMELRSLTSEDTAVYYCARNYYGSSYGWYFDVWGTGTTVTVSS VL: DIMMTQSHKFMSTSVGDRVSITCKASQDVGNAVVWYQQKPGQSPKLLIYWASTRHIGVPDRFTGSGSGTDFTLTITNVQSEDLADYFCQQYSSYLTFGAGTKLELK 510
